meta.source: paper PMC10916518

Assay: Cytotoxicity of medicines by CCK-8
Type: cell-based, human
Conditions: human, RD cells
ASSAY_METRIC: CC50 at 48 h (µg/mL)
Field: numeric (µg/mL). Do not append units.

Enquiry: Item NC(=O)c1ncn([C@@H]2O[C@H](CO)[C@@H](O)[C@H]2O)n1 [ribavirin, Ribavirin, reference compound] : provide CC50 at 48 h
Return: 2430
